# run_description: Counterscreen for cytotoxicity
# Type: cell-based
# measurement_setup: mouse, J774 cells (murine macrophage cell line)
# Method: With a source of these compounds in hand, their activity against Leishmania donovani cells was evaluated in two different assays. L. donovani axenic amastigotes were generated from promastigotes and maintained in an appropriate medium such that their proliferation could be evaluated using a colorimetric assay. […] Subsequent addition of the compound to be evaluated was added to the wells prior to incubation and evaluation. […]

{"structure_string": "COCCCNc1cc(-n2nc(C)c3c2CN(C(N)=O)CC3=O)ccc1C(N)=O", "IC50": "> 50 µg/mL"}
{"structure_string": "COCCCNc1cc(-n2nc(C)c3c2CN(C(=O)C2CCCC2)CC3=O)ccc1C(N)=O", "IC50": "> 50 µg/mL"}
{"structure_string": "COCCCNc1cc(-n2nc(C)c3c2CNCC3=O)ccc1C(N)=O", "IC50": "> 50 µg/mL"}
{"structure_string": "COCCCNc1cc(-n2nc(C)c3c2CN(C(C)=O)CC3=O)ccc1C(N)=O", "IC50": "> 50 µg/mL"}
{"structure_string": "COCCCNc1cc(-n2nc(C)c3c2CN(Cc2ccccc2)CC3=O)ccc1C(N)=O", "IC50": "> 50 µg/mL"}
{"structure_string": "COCCCNc1cc(-n2nc(C)c3c2CN(C(=O)c2ccc(C)cc2)CC3=O)ccc1C(N)=O", "IC50": "26.3 µg/mL"}
{"structure_string": "COCCCNc1cc(-n2nc(C)c3c2CC(C)(C)CC3=O)ccc1C(N)=O", "IC50": "3.52 µg/mL"}
{"structure_string": "COCCCNc1cc(-n2nc(C)c3c2CCCC3=O)ccc1C(N)=O", "IC50": "12.6 µg/mL"}
